Target: T1, 4H451-AA
T1 chain: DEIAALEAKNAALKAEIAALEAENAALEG
Test: two-hybrid library CCmax;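 note: natural log of median RNA to DNA barcode read ratio; higher means stronger binding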
Settings: mean of both orientations
metric: interaction score

Example cases with answers are listed next.
response.value for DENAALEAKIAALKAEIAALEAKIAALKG [4H1350-AA] (field: interaction score) = 0.115

Short answer for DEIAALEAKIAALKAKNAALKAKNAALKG [4H384-AA] : interaction score was -0.0732

1 = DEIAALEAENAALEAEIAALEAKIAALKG [4H134-AA]
2 = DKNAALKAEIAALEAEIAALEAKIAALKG [4H3590-AA]
(Q) Compare interaction score: is it lower for 1 or for 2 ? When you have decided, please share the label of that item.
(A) 2
(2: -1.08, 1: 0.937)
